Test system: HepG2
Experiment: MTT cytotoxicity on HepG2 cells
Type: cell-based, human
Conditions: 72 h, read-out: HepG2 LC50
Protocol: HeLa, HepG2, HEK and HCT116 cell lines were obtained from the American Type Culture Collection and maintained in Dulbecco’s modified Eagle’s medium (Invitrogen 11995-065) containing 25 mM glucose, 1 mM sodium pyruvate and supplemented with 5 mM HEPES, 10% FBS and penicillin-streptomycin (50 U ml^−1 penicillin, 50 µg ml^−1 streptomycin). […] Following addition of 100 µl dimethylsulfoxide to each well, absorbance was measured at optical density (OD)590 nm using Spectra max plate reader. […]
Recorded Endpoint: CC50 (µM)
Numbers only; they are read as µM.

Dear colleague, please send me the reported CC50 for `CC1(C)N=C(N)N=C(N)N1OCCCOc1cc(Cl)c(Cl)cc1Cl` when you can. 1100

----------
Assay: MTT cytotoxicity on HeLa cells
Assay type: cell-based, human
Details: human, HeLa cells, read-out: HeLa LC50
Recorded Endpoint: CC50 at 72 h

Read off the recorded CC50 at 72 h for CCc1nc(N)nc(N)c1-c1ccc(Cl)cc1 [Pyrimethamine] > 900 µM

----------
Tested on: HeLa
Assay: MTT cytotoxicity on HeLa cells
Format: cell-based, human
Settings: 72 h, read-out: HeLa LC50
Recorded Endpoint: CC50

Could you please provide reported CC50 for CC1(C)N=C(N)N=C(N)N1OCCCOc1cc(Cl)c(Cl)cc1Cl [WR-99210] ? Thanks! > 900 µM

----------
Assay: MTT cytotoxicity on HCT116 cells
Format: cell-based, human
Conditions: human, HCT116 cells, read-out: HCT LC50
Recorded Endpoint: CC50 at 72 h

Look up and state reported CC50 at 72 h for `CCc1nc(N)nc(N)c1-c1ccc(Cl)cc1` > 30 µM

----------
System: HEK293
Experiment: MTT cytotoxicity on HEK293 cells
Assay type: cell-based, human
Settings: 72 h, read-out: HEK293 LC50
Recorded Endpoint: CC50 (µM)
Provide the reading as a plain figure in µM.

# return recorded CC50 for input `CC1(C)N=C(N)N=C(N)N1OCCCOc1cc(Cl)c(Cl)cc1Cl` 1000

----------
Assay: MTT cytotoxicity on HepG2 cells
Type: cell-based, human
Details: human, HepG2 cells, read-out: HepG2 LC50
Recorded Endpoint: CC50 at 72 h
Respond with the figure and its unit, in that order.

Annotate the compound `CCc1nc(N)nc(N)c1-c1ccc(Cl)cc1` with its measured CC50 at 72 h. 1690 µM

The origin of these recorded values is paper PMC10159843.
